- Test system: Pseudomonas aeruginosa
- TEST DETAILS: MIC, compound in combination with a second agent (broth microdilution)
- Assay type: cell-based
- CONDITION DETAILS: 1:1 (wt:wt) combination with Rifampicin; MIC = total drug concentration; strain CCUG 59626
Counter-ions that a name gives are not always drawn. Bridge positions count the residues as written; N and C are the ends. Square brackets hold non-standard residues; d marks the D form. Peptide text beside a SMILES is read from it. * marks the point of attachment. ξ: configuration not given here. ξβ3hGly(cHex) = NC(CC(=O)*)C1CCCCC1; X8 = N[C@@H]1CC[C@H](C(=O)*)C1; Thr(3ξ) = CC(O)[C@H](N)C(=O)O; X10 = NC1(CC(=O)*)CCCCC1; Dab = NCC[C@H](N)C(=O)O
Give MIC P. aeruginosa CCUG 59626 for every item shown.
Output should be the measured figure followed by the unit it is expressed in.

Kindly give each listed record's MIC P. aeruginosa CCUG 59626.
1. CC(C)C[C@@H]1NC(=O)[C@@H](Cc2ccccc2)NC(=O)[C@H](CCN)NC(=O)[C@@H](NC(=O)[C@H](CCN)NC(=O)[C@@H](NC(=O)[C@H]2CC[C@@H](N)C2)C(C)O)CCNC(=O)[C@H](C(C)O)NC(=O)[C@H](CCN)NC(=O)[C@H](CCN)NC1=O (stereo partly drawn) [Example 34A, trifluoroacetate salt] (X8-[Thr(3ξ)][Dab][Dab][Dab][dF]L[Dab][Dab][Thr(3ξ)]; lactam 3-C)
2. CC(C)C[C@@H]1NC(=O)[C@@H](CC(C)C)NC(=O)[C@H](CCN)NC(=O)[C@@H](NC(=O)[C@H](CCN)NC(=O)[C@@H](NC(=O)CC(N)C2CCCCC2)C(C)O)CCNC(=O)[C@H](C(C)O)NC(=O)[C@H](CCN)NC(=O)[C@H](CCN)NC1=O (stereo partly drawn) [Example 30, TFA salt] ({ξβ3hGly(cHex)}-[Thr(3ξ)][Dab][Dab][Dab][dL]L[Dab][Dab][Thr(3ξ)]; lactam 3-C)

["0.125 micrograms/mL", "0.25 micrograms/mL"]

MIC P. aeruginosa CCUG 59626 lookup needed for CC(C)C[C@@H]1NC(=O)[C@@H](Cc2ccccc2)NC(=O)[C@H](CCN)NC(=O)[C@@H](NC(=O)[C@H](CCN)NC(=O)[C@@H](NC(=O)CC2(N)CCCCC2)C(C)O)CCNC(=O)[C@H](C(C)O)NC(=O)[C@H](CCN)NC(=O)[C@H](CCN)NC1=O (stereo partly drawn) [Example 42, TFA salt] (X10-[Thr(3ξ)][Dab][Dab][Dab][dF]L[Dab][Dab][Thr(3ξ)]; lactam 3-C) , thanks. 0.125 micrograms/mL

* * *

- System: Klebsiella pneumoniae
- TEST DETAILS: MIC, compound in combination with a second agent (broth microdilution)
- Assay type: cell-based
- CONDITION DETAILS: 1:1 (wt:wt) combination with Rifampicin; MIC = total drug concentration; strain CCUG-59348
Where a name gives a salt, the structure may show the parent alone. Numbered stars: 1 amine (or outer) side, 2 acyl side, 3 side chain; on linkers, the order of the positions; unused ones are H or OH. Bridge positions count the residues as written; N and C are the ends. Square brackets hold non-standard residues; d marks the D form. Peptide text beside a SMILES is read from it. * marks the point of attachment. ξ: configuration not given here. Acetyl(2-(piperazin-1-yl)) = O=C(CN1CCNCC1)*; GABA(4S-Me) = C[C@@H](CCC(=O)[*:2])N[*:1]; Thr(3ξ) = CC(O)[C@H](N)C(=O)O; Propanoyl(3-OH) = O=C(CCO)*; Dab = NCC[C@H](N)C(=O)O; Glycolyl = O=C(CO)*; X4 = NC1CCCC1C(=O)*
Give MIC K. pneumoniae CCUG-59348 for every item shown.
Answers are plain numbers, in micrograms/mL.

Example entries begin here.
MIC K. pneumoniae CCUG-59348 lookup needed for CC(C)C[C@@H]1NC(=O)[C@@H](Cc2ccccc2)NC(=O)[C@H](CCN)NC(=O)[C@@H](NC(=O)[C@H](CCN)NC(=O)[C@@H](NC(=O)CN2CCNCC2)C(C)O)CCNC(=O)[C@H](C(C)O)NC(=O)[C@H](CCN)NC(=O)[C@H](CCN)NC1=O (stereo partly drawn) [Example 52, trifluoroacetate salt] ({Acetyl(2-(piperazin-1-yl))}-[Thr(3ξ)][Dab][Dab][Dab][dF]L[Dab][Dab][Thr(3ξ)]; lactam 3-C) , thanks. 8

MIC K. pneumoniae CCUG-59348 lookup needed for CC(C)C[C@@H]1NC(=O)[C@@H](Cc2ccccc2)NC(=O)[C@H](CCN)NC(=O)[C@@H](NC(=O)[C@H](CCN)NC(=O)[C@@H](NC(=O)CO)C(C)O)CCNC(=O)[C@H](C(C)O)NC(=O)[C@H](CCN)NC(=O)[C@H](CCN)NC1=O (stereo partly drawn) [Example 8, Hydroxyacetyl polymyxin B nonapeptide] (Glycolyl-[Thr(3ξ)][Dab][Dab][Dab][dF]L[Dab][Dab][Thr(3ξ)]; lactam 3-C) , thanks. 8

MIC K. pneumoniae CCUG-59348 lookup needed for CC(C)C[C@@H]1NC(=O)[C@@H](Cc2ccccc2)NC(=O)[C@H](CCN)NC(=O)[C@@H](NC(=O)[C@H](CCN)NC(=O)[C@@H](NC(=O)CC[C@H](C)N)C(C)O)CCNC(=O)[C@H](C(C)O)NC(=O)[C@H](CCN)NC(=O)[C@H](CCN)NC1=O (stereo partly drawn) [Example 24] ({GABA(4S-Me)}-[Thr(3ξ)][Dab][Dab][Dab][dF]L[Dab][Dab][Thr(3ξ)]; lactam 3-C) , thanks. 8

MIC K. pneumoniae CCUG-59348 lookup needed for CC(C)C[C@@H]1NC(=O)[C@@H](Cc2ccccc2)NC(=O)[C@H](CCN)NC(=O)[C@@H](NC(=O)[C@H](CCN)NC(=O)[C@@H](NC(=O)CCO)C(C)O)CCNC(=O)[C@H](C(C)O)NC(=O)[C@H](CCN)NC(=O)[C@H](CCN)NC1=O (stereo partly drawn) [Example 26] ({Propanoyl(3-OH)}-[Thr(3ξ)][Dab][Dab][Dab][dF]L[Dab][Dab][Thr(3ξ)]; lactam 3-C) , thanks. 8

MIC K. pneumoniae CCUG-59348 lookup needed for CC(C)C[C@@H]1NC(=O)[C@@H](Cc2ccccc2)NC(=O)[C@H](CCN)NC(=O)[C@@H](NC(=O)[C@H](CCN)NC(=O)[C@@H](NC(=O)C(O)C2CCCCC2)C(C)O)CCNC(=O)[C@H](C(C)O)NC(=O)[C@H](CCN)NC(=O)[C@H](CCN)NC1=O (mixture of isomers) , thanks. 2

Lab note: next compound to report on.
MIC K. pneumoniae CCUG-59348 lookup needed for CC(C)C[C@@H]1NC(=O)[C@@H](Cc2ccccc2)NC(=O)[C@H](CCN)NC(=O)[C@@H](NC(=O)[C@@H](CO)NC(=O)[C@@H](NC(=O)C2CCCC2N)C(C)O)CCNC(=O)[C@H](C(C)O)NC(=O)[C@H](CCN)NC(=O)[C@H](CCN)NC1=O (stereo partly drawn) [Example 44, TFA salt] (X4-[Thr(3ξ)][dS][Dab][Dab][dF]L[Dab][Dab][Thr(3ξ)]; lactam 3-C) , thanks. 4

* * *

- Test system: Klebsiella pneumoniae
- TEST DETAILS: MIC, compound in combination with a second agent (broth microdilution)
- Assay type: cell-based
- CONDITION DETAILS: 1:1 (wt:wt) combination with Rifampicin; MIC = total drug concentration; strain CCUG-59348
Structures can show the parent of a compound that is named as a salt. Bridge positions count the residues as written; N and C are the ends. Square brackets hold non-standard residues; d marks the D form. Peptide text beside a SMILES is read from it. * marks the point of attachment. ξ: configuration not given here. Cyclohexanoyl(cis-4-NH2) = N[C@H]1CC[C@@H](C(=O)*)CC1; ξβ3hGly(cHex) = NC(CC(=O)*)C1CCCCC1; X8 = N[C@@H]1CC[C@H](C(=O)*)C1; Thr(3ξ) = CC(O)[C@H](N)C(=O)O; Chg = N[C@H](C(=O)O)C1CCCCC1; Dab = NCC[C@H](N)C(=O)O
Give MIC K. pneumoniae CCUG-59348 for every item shown.
One number for each entry, in micrograms/mL.

Kindly give each listed record's MIC K. pneumoniae CCUG-59348.
1. CC(C)C[C@@H]1NC(=O)[C@@H](Cc2ccccc2)NC(=O)[C@H](CCN)NC(=O)[C@@H](NC(=O)[C@H](CCN)NC(=O)[C@@H](NC(=O)[C@H]2CC[C@@H](N)C2)C(C)O)CCNC(=O)[C@H](C(C)O)NC(=O)[C@H](CCN)NC(=O)[C@H](CCN)NC1=O (stereo partly shown) [Example 34A, trifluoroacetate salt] (X8-[Thr(3ξ)][Dab][Dab][Dab][dF]L[Dab][Dab][Thr(3ξ)]; lactam 3-C)
2. CC(C)C[C@@H]1NC(=O)[C@@H](Cc2ccccc2)NC(=O)[C@H](CCN)NC(=O)[C@@H](NC(=O)[C@H](CCN)NC(=O)[C@@H](NC(=O)[C@@H](N)C2CCCCC2)C(C)O)CCNC(=O)[C@H](C(C)O)NC(=O)[C@H](CCN)NC(=O)[C@H](CCN)NC1=O (stereo partly shown) [Example 40, trifluoroacetate salt] (H-[Chg][Thr(3ξ)][Dab][Dab][Dab][dF]L[Dab][Dab][Thr(3ξ)]; lactam 4-C)
3. CC(C)C[C@@H]1NC(=O)[C@@H](Cc2ccccc2)NC(=O)[C@H](CCN)NC(=O)[C@@H](NC(=O)[C@@H](CO)NC(=O)[C@@H](NC(=O)CC(N)C2CCCCC2)[C@@H](C)O)CCNC(=O)[C@H](C(C)O)NC(=O)[C@H](CCN)NC(=O)[C@H](CCN)NC1=O (stereo partly drawn) [Example 48, TFA salt] ({ξβ3hGly(cHex)}-T[dS][Dab][Dab][dF]L[Dab][Dab][Thr(3ξ)]; lactam 3-C)
4. CC(C)C[C@@H]1NC(=O)[C@@H](Cc2ccccc2)NC(=O)[C@H](CCN)NC(=O)[C@@H](NC(=O)[C@H](CCN)NC(=O)[C@@H](NC(=O)[C@H]2CC[C@@H](N)CC2)C(C)O)CCNC(=O)[C@H](C(C)O)NC(=O)[C@H](CCN)NC(=O)[C@H](CCN)NC1=O (stereo partly drawn) [Example 20] ({Cyclohexanoyl(cis-4-NH2)}-[Thr(3ξ)][Dab][Dab][Dab][dF]L[Dab][Dab][Thr(3ξ)]; lactam 3-C)

4
8
2
4
